All figures here come from the supplement of paper PMC10567573.

B1: ZC3H15 (parent)
chain: RKADFKAGKALVISGREVFEFRPE

variants of: B1; assay: protein stability index of a GFP-peptide fusion (GPS, HEK-293T) (PSI 1-6); higher = more stable; details: c terminus: a fixed tail appended;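 further: lentivirally expressed fusions sorted by FACS into six bins by GFP to DsRed ratio, PSI derived from sequencing read proportions per bin multiplied by bin number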
Property Label: protein stability index
Note: the reply should be a number with no unit written.

Reference set, count: 10
In [3]: df
Out[3]:
   variant_identifier           property_label  recorded_value
0                E17K  protein stability index            2.08
1                E20K  protein stability index            2.68
2                I13R  protein stability index            3.89
3                 G8E  protein stability index            2.99
4                R22M  protein stability index            3.54
5                E24P  protein stability index            2.44
6                E24F  protein stability index            1.85
7                 A3D  protein stability index             3.7
8                E20L  protein stability index            2.51
9                S14E  protein stability index            3.67

Identify the reported protein stability index for the following entry. V12K
2.91

Identify the reported protein stability index for the following entry. S14L
1.57

Identify the reported protein stability index for the following entry. R1C
1.91
